biological target: CD40 on peripheral blood mononuclear cells (PBMC) from healthy donors (human, UniProt P25942 21-277); experiment: cell-based or functional assay
Sequence (P25942 21-277): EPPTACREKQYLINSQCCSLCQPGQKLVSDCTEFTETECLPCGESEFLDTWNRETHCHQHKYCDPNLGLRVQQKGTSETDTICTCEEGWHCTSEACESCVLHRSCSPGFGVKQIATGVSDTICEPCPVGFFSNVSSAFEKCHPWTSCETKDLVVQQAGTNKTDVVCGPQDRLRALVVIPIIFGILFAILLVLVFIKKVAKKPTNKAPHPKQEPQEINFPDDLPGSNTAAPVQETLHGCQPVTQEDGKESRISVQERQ
Assay Readout: Percentage inhibition of TNF secretion at 1 ng/ml (%)
Report the figure in % without appending any unit label.

PG102_Var6 (antibody, human IgG4 S228P, kappa, V domains shown, IgG4pro(deltaK)/kappa; also called FFP104_Var6) VH: QVQLQESGPGLVKPSETLSITCTVSGFSLSRYSVYWVRQPPGKGLEWMGMMWGGGSTDYSTSLKSRLTISKDTSKSQVSLKMSSLTAADTAVYYCVRTDGDYWGQGTLVTVSS VL: ELQLTQSPLSLPVTLGQPASISCRSSQSLASSQGNTYLHWYLQRPGQSPRLLIYKVSNRFSGVPDRFSGSGSGTDFTLKISRVEAEDVGVYYCSQSTHVPWTFGGGTKLEIKR    16.6

Attention now shifts to the item below.
### Prompt May I ask what Percentage inhibition of TNF secretion at 1 ng/ml has been recorded for PG102_Var5 (antibody, human IgG4 S228P, kappa, V domains shown, IgG4pro(deltaK)/kappa; also called FFP104_Var5) VH: QVQLQESGPGLVKPSETLSITCTVSGFSLSRYSVYWIRQPPGKGPEWMGMMWGGGSTDYSTSLKSRLTISKDTSKSQVSLKMSSLTAADTAVYYCVRTDGDYWGQGTLVTVSS VL: ELQLTQSPLSLPVTLGQPASISCRSSQSLASSQGNTYLHWYLQRPGQSPRLLIYKVSNRFSGVPDRFSGSGSGTDFTLKISRVEAEDVGVYYCSQSTHVPWTFGGGTKLEIKR ?
### Response 22.5
